# target.or.test.system: KRAS 4B G12C protein (Homo sapiens, UniProt P01116, G12C)
# Construct: This protein contained 188 amino acids in total, including an N-terminal 6-Histidine tag; made in house; host or cells: E. coli BL21
# assay.overview: In vitro covalent adduct formation (CAF) assay by LC-MS
# Type: binding
# assay.context: 10 minutes; compound 10 μM, protein 5 μM, 22° C.; percentage of protein bound by the compound
Provide the reported CAF (10 minutes/60 minutes) at 10 micromolar: 10 minutes of each item.
One number for each entry, in %.

Field: example entries. Status: answers known.
{"molecule": "C=CC(=O)N1CCN(c2nc(OC[C@@H]3CCCN3C)nc3c2CN(Cc2ccccc2C)C3)C[C@@H]1CC#N [1-45]", "number": 94}
{"molecule": "C=C(F)C(=O)N1CCN(c2nc(OC[C@@H]3CCCN3C)nc3c2CN(Cc2c(Cl)cccc2OC(F)F)C3)C[C@@H]1CC#N [1-104]", "number": 8}
{"molecule": "C=C(F)C(=O)N1CCN(c2nc(OC[C@@H]3CCCN3C)nc3c2CN(Cc2cc(N)ncc2Cl)C3)C[C@@H]1CC#N [1-332]", "number": 6}

# return CAF (10 minutes/60 minutes) at 10 micromolar: 10 minutes for each item in the list
1. C=CC(=O)N1CCN(c2nc(OC[C@@H]3CCCN3C)nc3c2CN(C2CCc4ccccc42)C3)C[C@@H]1C(N)=O (stereo partly shown) [1-159]
2. C=CC(=O)N1CCN(c2nc(OC[C@@H]3CCCN3C)nc3c2CN(Cc2cccc4cccc(C)c24)C3)C[C@@H]1CC#N [1-16]
3. C=CC(=O)N1CCN(c2nc(OC[C@@H]3CCCN3C)nc3c2CN(c2cccc4cccc(C)c24)C3)C[C@@H]1CC(F)(F)F [1-48]
4. C=CC(=O)N1CCN(c2nc(OC[C@@H]3CCCN3C)nc3c2CN(Cc2cc(O)ccc2CC)C3)C[C@@H]1CC#N [1-184]

Ans.
[10, 40, 0, 96]

* * *

# target.or.test.system: KRAS 4B G12C protein (Homo sapiens, UniProt P01116, G12C)
# Construct: This protein contained 188 amino acids in total, including an N-terminal 6-Histidine tag; made in house; host or cells: E. coli BL21
# assay.overview: In vitro covalent adduct formation (CAF) assay by LC-MS
# Type: binding
# assay.context: 10 minutes; compound 10 μM, protein 5 μM, 22° C.; percentage of protein bound by the compound
Provide the reported CAF (10 minutes/60 minutes) at 10 micromolar: 10 minutes of each item.
Answers are plain numbers, in %/ 0%.

{"molecule": "C=CC(=O)N1CCN(c2nc(OC[C@@H]3CCCN3C)nc3c2CN(C(=O)c2cccc(C(F)F)c2)C3)[C@@H](C)C1", "units.text": "%/ 0%", "number": 0}
{"molecule": "C=CC(=O)N1CCN(c2nc(O[C@@H]3CN(C)C[C@H]3OC)nc3c2CN(C2CCc4ccccc42)C3)C2CS(=O)(=O)CC21 (some centres unmarked)", "units.text": "%/ 0%", "number": 0}
{"molecule": "C=CC(=O)N1CCN(c2nc(OC[C@@H]3CCCN3C)nc3c2CN(Cc2c(Cl)cccc2OC(F)F)C3)C[C@H]1C", "units.text": "%/ 0%", "number": 0}
{"molecule": "C=C(F)C(=O)N1CCN(c2nc(OCc3cncn3C)nc3c2CN(C2CCc4ccccc42)C3)C[C@@H]1CC#N (some centres unmarked)", "units.text": "%/ 0%", "number": 0}

Qu. Returns the measured CAF (10 minutes/60 minutes) at 10 micromolar: 10 minutes for the input molecule. Input: C=CC(=O)N1CCN(c2nc(OC[C@@H]3CCCN3C)nc3c2CN(C2CCc4ccccc42)C3)C2CS(=O)(=O)CC21 (some centres unmarked)
Ans. 0
